test: Headspace volatilization of secondary metabolites by GCMS; format: physicochemical; conditions: Commercial rosemary oil sample two; share of total peak area
So basically, if % of secondary metabolite in headspace comes in under 5% it's rule met, and if it's 5% or more it's rule not met.

Req: Consider the compound Cc1ccc(C(C)C)cc1 [p-Cymene] . Is its % of secondary metabolite in headspace strictly less than 5%?
Resp: rule met

Req: Quick check: does CC1(C)C2CCC1(C)C(O)C2 (stereo not shown) [Borneol] have % of secondary metabolite in headspace under 5%?
Resp: rule met

Req: Consider the compound CC(=O)OC(C)C [Isopropyl acetate] . Is its % of secondary metabolite in headspace strictly less than 5%?
Resp: rule met

Req: Quick check: % of secondary metabolite in headspace of CC1(C)[C@@H]2CC[C@@]1(C)[C@H](O)C2 [Isoborneol] under 5%?
Resp: rule met

Req: State whether 5% exceeds % of secondary metabolite in headspace recorded for CC1=CCC2CC1C2(C)C (stereo not shown) [a-pinene] .
Resp: rule not met

Req: Please let me know if CC12CCC(CC1=O)C2(C)C (stereo not shown) [Camphor] shows % of secondary metabolite in headspace below 5%.
Resp: rule not met

Req: Take the compound C=C1CCC2CC1C2(C)C (stereo not shown) [b-pinene] and say whether its % of secondary metabolite in headspace is less than 5%.
Resp: rule not met

Req: Say whether its % of secondary metabolite in headspace is strictly beneath 5%. Entry: CC12CCC(CC1)C(C)(C)O2 [1,8-Cineole]
Resp: rule not met

Req: Does C=C(C)[C@H]1CC=C(C)CC1 [D-Limonene] have % of secondary metabolite in headspace strictly under 5%?
Resp: rule met

Req: Strictly below 5% in % of secondary metabolite in headspace? C=C1C2CCC(C2)C1(C)C (stereo not shown) [Camphene]
Resp: rule not met

###

test: Volatilization monitoring by ultra-fast gas chromatograph inside empty moving box; format: physicochemical; details: from fumigant pesticide composition prototype, empty medium size box, 60-150 min and 23 h after closing
observedProperty: pattern of volatilization

> print(dat)
                                 molecule     measuredvalue
1  C=CC(C)(O)CCC=C(C)C (stereo not shown)  Steady compounds
2                     CC(C)=CCC/C(C)=C/CO  Steady compounds
